Target: T1, human CD81 on CD81-expressing cells (Jurkat E6.1, human PBMC, Ramos) (human, UniProt P60033 1-236)
T1 sequence: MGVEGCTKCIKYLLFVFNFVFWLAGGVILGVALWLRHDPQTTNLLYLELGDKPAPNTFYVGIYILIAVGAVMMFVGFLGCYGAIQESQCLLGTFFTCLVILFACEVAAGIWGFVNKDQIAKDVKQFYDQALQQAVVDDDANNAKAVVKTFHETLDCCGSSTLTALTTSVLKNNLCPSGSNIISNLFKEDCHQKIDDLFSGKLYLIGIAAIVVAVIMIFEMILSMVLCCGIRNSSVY
Test: cell-based or functional assay
Threshold check on Jurkat chemotaxis (% of control IgG4) at 0.01 µg/mL: strictly below 90% is condition met; on or above 90% is condition not met.

**Query** Just wondering, is Jurkat chemotaxis (% of control IgG4) at 0.01 µg/mL of 002-F01 (antibody, human IgG4 S228P, lambda, V domains shown, IgG4 S228P) VH: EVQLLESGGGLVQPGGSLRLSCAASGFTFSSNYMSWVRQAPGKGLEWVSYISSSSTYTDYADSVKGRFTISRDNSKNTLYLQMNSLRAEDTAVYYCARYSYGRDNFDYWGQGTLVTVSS VL: QSVLTQPPSASGTPGQRVTISCTGSTSNIGAGYDTHWYQQLPGTAPKLLIYGNSNRPSGVPDRFSGSKSGTSASLAISGLRSEDEADYYCQSYDTNLSAWVFGGGTKLTVLG below 90%?
**Result** condition met

**Query** Just wondering, is Jurkat chemotaxis (% of control IgG4) at 0.01 µg/mL of 002-A07 N113Q (antibody, human IgG4 S228P, lambda, V domains shown, IgG4 S228P; glycosylation site mutant of 002-A07 VL) VH: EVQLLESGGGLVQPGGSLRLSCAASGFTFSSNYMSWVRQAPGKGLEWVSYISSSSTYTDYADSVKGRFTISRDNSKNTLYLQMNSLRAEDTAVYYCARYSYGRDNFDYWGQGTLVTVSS VL: QSVLTQPPSASGTPGQRVTISCTGSTSNIGAGYDTHWYQQLPGTAPKLLIYGNSNRPSGVPDRFSGSKSGTSASLAISGLRSEDEADYYCQSYDTQLSVWVFGGGTKLTVLG below 90%?
**Result** condition not met

**Query** Just wondering, is Jurkat chemotaxis (% of control IgG4) at 0.01 µg/mL of 002-C02 (antibody, human IgG4 S228P, lambda, V domains shown, IgG4 S228P) VH: EVQLLESGGGLVQPGGSLRLSCAASGFTFSSNYMSWVRQAPGKGLEWVSYISSSSSYTDYADTVKGRFTISRDNSKNTLYLQMNSLRAEDTAVYYCASYSYGRDSFDYWGQGTLVTVSS VL: QSVLTQPPSASGTPGQRVTISCTGSTSNIGAGYDTHWYQQLPGTAPKLLIYGNSNRPSGVPDRFSGSKSGTSASLAISGLRTEDEADYYCQSYDTNLSVWVFGGGTKLTVLG below 90%?
**Result** condition not met

**Query** Just wondering, is Jurkat chemotaxis (% of control IgG4) at 0.01 µg/mL of 002-A07 N113S (antibody, human IgG4 S228P, lambda, V domains shown, IgG4 S228P; glycosylation site mutant of 002-A07 VL) VH: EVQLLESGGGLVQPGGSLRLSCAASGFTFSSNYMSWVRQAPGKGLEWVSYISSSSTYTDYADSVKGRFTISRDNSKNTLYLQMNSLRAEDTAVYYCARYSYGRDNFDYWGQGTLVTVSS VL: QSVLTQPPSASGTPGQRVTISCTGSTSNIGAGYDTHWYQQLPGTAPKLLIYGNSNRPSGVPDRFSGSKSGTSASLAISGLRSEDEADYYCQSYDTSLSVWVFGGGTKLTVLG below 90%?
**Result** condition not met

**Query** Just wondering, is Jurkat chemotaxis (% of control IgG4) at 0.01 µg/mL of 003-D07 (antibody, human IgG4 S228P, lambda, V domains shown, IgG4 S228P) VH: EVQLLESGGGLVQPGGSLRLSCAASGFTFSSNYMSWVRQAPGKGLEWVSYISSSSTYTDYADSVKGRFTISRDNSKNTLYLQMNSLRAEDTAVYYCARYSYDRDNFDYWGQGTLVTVSS VL: QSVLTQPFSASGTPGQRVTISCTGSTSNIGAGYDTHWYQHLPGTAPKLLIYGNSNRPSGVPDRFSGSKSGTSASLAISGLRSEDEADYYCQSYDTNLSVWVFGGGTKLTVLG below 90%?
**Result** condition met

**Query** Just wondering, is Jurkat chemotaxis (% of control IgG4) at 0.01 µg/mL of 002-D10 (antibody, human IgG4 S228P, lambda, V domains shown, IgG4 S228P) VH: EVQLLESGGGLVQPGGSLRLSCAASGFTFSSNYMSWVRQAPGKGPEWVSYISSSSTYTDYADSVKGRFTISRDNSKNTLYLQMNSLRAEDTAVYYCARYSYGRDNFDYWGQGTLVTVSS VL: QSVLTQPSSASGTPGQRVTISCTGSTSNIGAGYDTHWYQQLPGTAPKLLIYGNSNRPSGVPDRFSGSKSGTSASLAVSGLRSEDEAEYYCQSYDTNLSGWVFGGGTKLTVLG below 90%?
**Result** condition met

**Query** Just wondering, is Jurkat chemotaxis (% of control IgG4) at 0.01 µg/mL of 003-A11 (antibody, human IgG4 S228P, lambda, V domains shown, IgG4 S228P) VH: EVQLLESGGGLVQPGGSLRLSCAASGFTFGSNYMSWVRQAPGKGLEWVSYISSSSTYTDYADSVKGRFTISRDNSKNTLYLQMNSLRAEDTAVYYCARYSYGRDNFDYWGQGTLVTVSS VL: QSVLTQPPSASGTPGQRVTISCTGSTSNIGAGYDTHWYQQLPGTAPKLLIYGNSNRPSGVPDRFSGSKSGTSASLAISGLRSEDEADYYCQSYDTNLSGWVFGGGTKLTVLG below 90%?
**Result** condition met

Switching to the query record.
**Query** Just wondering, is Jurkat chemotaxis (% of control IgG4) at 0.01 µg/mL of 002-A07 N113G (antibody, human IgG4 S228P, lambda, V domains shown, IgG4 S228P; glycosylation site mutant of 002-A07 VL) VH: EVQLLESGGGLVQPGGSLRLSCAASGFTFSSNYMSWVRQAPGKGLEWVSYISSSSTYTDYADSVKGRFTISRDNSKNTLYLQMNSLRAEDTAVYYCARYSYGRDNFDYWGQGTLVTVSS VL: QSVLTQPPSASGTPGQRVTISCTGSTSNIGAGYDTHWYQQLPGTAPKLLIYGNSNRPSGVPDRFSGSKSGTSASLAISGLRSEDEADYYCQSYDTGLSVWVFGGGTKLTVLG below 90%?
**Result** condition not met
